Sourced from patent EP0060179A1

system under test: récepteurs post-synaptiques de la sérotonine
protocol text: 3H-serotonin binding to rat cortex membranes (Peroutka and Snyder method)
condition summary: fixed concentration of 3H-serotonin
pIC50: −log10 of the molar value.
measured property: pIC50

Report measured pIC50; entry is CCNC(C)Cc1cccc(C(F)(F)F)c1 (stereo not shown) [fenfluramine, reference compound] < 5.00

----------
Tested on: prise de nourriture chez le rat
protocol text: Anorectic activity, food intake method in the rat
Assay type: in vivo
condition summary: i.p.; DL50/DE50
measured property: A/B (index thérapeutique lié à la toxicité aiguë)

Sample records with A/B (index thérapeutique lié à la toxicité aiguë):
CCNC(C)Cc1cccc(C(F)(F)F)c1 (stereo not drawn) [fenfluramine, reference compound]; 15,8
CCCN1CC=C(c2cccc(C(F)(F)F)c2)CC1 [CM 57545]; 17,7

Then there is this molecule:
Please respond with reported A/B (index thérapeutique lié à la toxicité aiguë) (system prise de nourriture chez le rat) for FC(F)(F)c1cccc(C2=CCNCC2)c1 [CM 57235] . 11,2
